Procedure text: soluble fraction after stress (log2 fold change); higher = more stays soluble; pooled small domains, quantitative proteomics;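 further: 20 min heating vs room temperature control held 20 min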
Conditions used: stress: 75 degC
Known soluble fraction (log2) of a selection of sequences
Just the number, please.

* HMEDLGYVKVASQTAAIRKSAAVQAGQIGTVHEGETYRYLGEEEGWYLVEYNGQKAYISWDDGEL | -0.323
* HMLKFPIGTHVGKKKPSANLSLPNKHGVVIGHGERRNAKGAIMRFYIVETTHSSRPEEWAPGITYPL | -2.72
* HMGGGFLVPSLVGKSLEEARSLSELRGFKLEVGDYVISSEYPAGRVTRQNPANGAKGQEGDVIKVEVSS | -0.00395
* HMKKYIEIYNYYKQLIESEQLKSGDKMPSVRKATKIFNVSKTTVQNAYFDLQADGYIIAAPKSGYYVTEM | -1.07
* HMTVSADQTTADAVIKLIDAIGTVSKNSGSAISAARSGYDALTDAQKKLVTNYNKLTQAEQVFSSLS | 0.494
* HMSSSMDAIAEIIRSIPRGDHLTAPEVYELAKQRGLKLSLSTVYRTLNKLKVVGDVITVSGDRGLRYESV | -0.336
* HMDIPGITAVKPQAAFYMFPKIDVKKFNIVNDEKFALDLLQDKKILIVQGSGFNWKQPDHFRVV | 0.177

Now consider a different sequence.
Entry under test: "HMENQGEDMRQQVKALVNADKTNITKLATATGYSRSTISMYLAGNYKGDVEAVERRLEEYMKTQG" . Its soluble fraction (log2) was -0.0512

====

Procedure text: soluble fraction after stress (log2 fold change); higher = more stays soluble; pooled small domains, quantitative proteomics
Conditions used: stress: 75 degC
Known soluble fraction (log2) of a selection of sequences
Just the number, please.

Entry under test: "HMPNYIDAISALLTLKGVGDRKHASTMANILNLQYNSAKQKLDGKRGITLDEVKKVFQYFNEPF" . Its soluble fraction (log2) was -1.44

Entry under test: "HMKIQTYEDFRNAYPDIQGSLFGSAERYKTDLDWGDVAAKYDADEELKNVRNIFQLVRRYEQKYS" . Its soluble fraction (log2) was 0.612

Entry under test: "HMGVDIAEHDGQPAVSIRKGAAESVAQWVKDQGGTFPQEVEMTVQNVARAGGTPLVVARGRDVLGVIYLKD" . Its soluble fraction (log2) was -0.0119

Entry under test: "HMNENDPRVIKTRRLLLDSFVVLVRKKDFTSISVKDITDSAQVNRATFYAHFQDKYDILEYMVID" . Its soluble fraction (log2) was 0.0912

Entry under test: "HMDFGHWAAHKLEQMSEYRLRHGEAVAIGIALDVLYSVRQGLLARPAAERILSLLERLGFTLFDPELKS" . Its soluble fraction (log2) was 0.224

====

Procedure text: soluble fraction after stress (log2 fold change); higher = more stays soluble; pooled small domains, quantitative proteomics
Conditions used: stress: 75 degC
Property measured: soluble fraction (log2)
Just the number, please.

* HMGMNKEHFIIELKIYLKALNPKDQAIILAKYKALFDARVAEGETEEQVAKSLGKPRVIAEEILKEQGIE | -3.26
* HMYYNQGILKSGASVYGEPGITSSHRLEIPSGSFVDIVQEKDEWVYYEKNHVNHGWVLRENIYIPSL | 0.149
* HMSDGTVYGSDGVIKVNLPQSGMLRIYATDGTTLVNRWQAAGIDTISMPRGLYIVRFDNQVWKVVV | -1.65

Entry under test: "HMKESRFDYDAVLLYSDKDSITEVKDAVQHLTKEFGSVFTTKKIPEKATFGKLFRIEKGEVNIIEDN" . Its soluble fraction (log2) was 0.367

Entry under test: "HMSTKLLEVNIFDDSKWVNKTIMDSDIPEDILIVMIKRGDEVIVPKGSTIINKGDILVLSANNFDNLLN" . Its soluble fraction (log2) was -2.45

Entry under test: "HMPDKIDSAAQGILDKLIRNDGFMAVTDKSPPEAIYKLFGVSKKVFKQAIGSLYKNRLITIEDAGLRIIPQ" . Its soluble fraction (log2) was -0.481

Entry under test: "HMVPEMIRDVISKSIRDMGVLPDHMQINERIALIQSLKKQQILGIKGAVAETARQLGISVPTVYRYMKKG" . Its soluble fraction (log2) was -0.946

====

Procedure text: soluble fraction after stress (log2 fold change); higher = more stays soluble; pooled small domains, quantitative proteomics
Conditions used: stress: 75 degC
Property measured: soluble fraction (log2)
Just the number, please.

Would you please look over these solved cases?
• HMRVELVVVPELRQQLLPEARELANSAGLQLRVRGQSPADETRTIVVTQSPAAGTRVAARSIVLVE = -1.12
• HMGTSFEDIDRAVKSVRKPETDEAEKLHAGKTFKDIAETELFQKLTESFAGISDRVNEVIDLYTARAAE = 0.188
• HMHGEAEFLDATAVVMEKLNPGGLVKIKGEIWQAVSKDGHTIQEGEKVRVFERQGITLLVGHF = -0.876

Now consider a different sequence.
Entry under test: "HMRTANREKRIEASVKMMKAGYPVGYIIARVFMYEGWEEDYRQLLIYLSEKIPKDVSNPITFEVIS" . Its soluble fraction (log2) was -0.622

====

Procedure text: soluble fraction after stress (log2 fold change); higher = more stays soluble; pooled small domains, quantitative proteomics
Conditions used: stress: 75 degC
Known soluble fraction (log2) of a selection of sequences
Just the number, please.

Would you please look over these solved cases?
- HMDVSASEVGLTGRQTDVLSLMVKGRSNRDIAELLGLSEGTVKIHITAIFKALGVASRTQALVAAARLGLK: -0.82
- HMSNEYLMPNLIGMSWDEAKSKYSQYMTLVPEQEWSEVTKDQIFDQEYPEGRKVKIGTEVTVKVSMGI: -0.654
- HMGVNEGVNKLFKTIQETPGKRMPYYALATDVPEKTIERWLKQLREEGKIEFKGSAKTGGYFVIDK: -0.000624

Entry under test: "HMVKFGERVKQLRLSAGMTQEQLAERIWVTKAAISNYELSERNPSPETIIKIAGVFGVTTDYLLGLED" . Its soluble fraction (log2) was -1.9

Entry under test: "HMTKSSAYLSAEKLINKKQYSDAIVKLNDALVTDSKNADIYNYLGFSHRKLGKMEDAAFFYNKALE" . Its soluble fraction (log2) was 0.0234

Entry under test: "HMDVEMLIDKYQLNDSEAEVLRFMKKNRQSLKTIGIRDVAKATYVSTATIINMAKKIGYSGYSELVFALGN" . Its soluble fraction (log2) was -1.69

Entry under test: "HMNNTIKFSVDENNSGKRLDVYLTENINHLTRSFLKKLIEKEQVKLNKKVLTSPATKVKTKDQITINIIE" . Its soluble fraction (log2) was 0.0625

Entry under test: "HMIEDMQQYIKEIRQMVSGRLDMTRNLEDEEIRDTIAELVAEESRKQYMTLTEKREVIEGVFNSMR" . Its soluble fraction (log2) was -0.0831

Entry under test: "HMPRPLVAPMPGLIVRVTAVVGDSVDAGQGLVVMEAMKMENELRTTTAGVVKTVHVQPGVAVEKGALLIEF" . Its soluble fraction (log2) was -0.827

Entry under test: "HMELPSDEHLDDISHLARIGHKKGLQEKIIQLEQQGLASAEFIQQLKTLTNNFQFEKIIQWVDSEL" . Its soluble fraction (log2) was -0.055

====

Procedure text: soluble fraction after stress (log2 fold change); higher = more stays soluble; pooled small domains, quantitative proteomics
Conditions used: stress: 75 degC
Property measured: soluble fraction (log2)

Entry under test: "HMDVALEALDESDGAVRLQFSGALQTYLNDSTTAASLEAISKTFRAFYEAAGRPVDTLEVYAAGEPVT" . Its soluble fraction (log2) was 0.105

Entry under test: "HMKALDTVLSEIPGLGPVRIKQLLKVFGSVDAIRKASLQDLQQIEGIGPKLAQTIYEYFHQP" . Its soluble fraction (log2) was 0.898

Entry under test: "HMGPRPLPAEFTHPSLRALLALGTTRGGVTSADVKTALEAASVPAGRRAAVLRALDDNGIEVHTEP" . Its soluble fraction (log2) was -0.0155

Entry under test: "HMGTSSAEIAAELRAQIFAGELRPGEMLPSAREITGTWNVAIATASRVHALLRSEGLATPVPGVGTVVAT" . Its soluble fraction (log2) was 0.223

Entry under test: "HMNFTMERLYTKELTSEDIDEIKKELNSMGYTEGVEFNIIKGDKTSFIMAERQLKAKMLSHLSDLGLPRGA" . Its soluble fraction (log2) was -0.245

Entry under test: "HMFDGTLSIYPNPSKGIFNLDLLNVKDGEYTITVDNLLGQEVYSEIRNVINSSSKTLDLSNLTKGV" . Its soluble fraction (log2) was -0.204

Entry under test: "HMNESADMPDVVNMSLEAAKSQLEGMGLKVKVENVEDDSVEENHVIKTSPVSGEKVKLGTTVTLTVSKGR" . Its soluble fraction (log2) was -0.116

Entry under test: "HMTDFSDLSFKYNSEEKDVLNSINLKINGGEMTSLVGHSGAGKTTILNLIPRFYEKSKGDISIDGQSIY" . Its soluble fraction (log2) was 0.0241
